System: LOC_OS01G52050-cb004
Sequence (as listed by the source): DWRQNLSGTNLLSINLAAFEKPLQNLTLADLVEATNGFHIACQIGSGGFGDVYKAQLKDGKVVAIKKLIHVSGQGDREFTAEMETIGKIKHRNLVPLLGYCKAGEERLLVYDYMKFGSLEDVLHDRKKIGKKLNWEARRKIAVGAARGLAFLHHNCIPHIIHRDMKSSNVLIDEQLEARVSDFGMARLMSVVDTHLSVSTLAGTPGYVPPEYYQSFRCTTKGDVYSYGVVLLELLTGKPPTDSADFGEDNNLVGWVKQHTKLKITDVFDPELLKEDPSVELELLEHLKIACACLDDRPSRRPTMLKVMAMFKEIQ
PROTOCOL_NOTES: thermal shift delta Tm vs DMSO control; higher = stronger stabilization (binding);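 further: purified Escherichia coli-expressed rice kinase domain construct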
TEST_SETTINGS: 12.5 µM; protein concentration 2 µM
# thresholds on thermal shift delta Tm define classes: low bracket = under 0.2 °C, middle bracket = from 0.2 °C up to 4 °C, high bracket = 4 °C and over

INSERT INTO measurements (molecule, discrete_label) VALUES
  ('C[C@H](NC(=O)/C(C#N)=C/c1cccc(Br)n1)c1ccccc1', 'low bracket'),
  ('CN(c1ccccc1CNc1nc(Nc2ccc3c(c2)CC(=O)N3)ncc1C(F)(F)F)S(C)(=O)=O', 'high bracket'),
  ('Oc1c2ccccc2c2c3c(cccc13)N=N2', 'high bracket'),
  ('CC#CC(=O)N1CCC[C@H]1c1nc(-c2ccc(C(=O)Nc3ccccn3)cc2)c2c(N)nccn12', 'low bracket'),
  ('COc1cc(CCc2cc(NC(=O)c3ccc(N4CC(C)NC(C)C4)cc3)n[nH]2)cc(OC)c1 (configuration not stated)', 'low bracket'),
  ('CCCCOc1c(C(=O)c2c(F)cc(C)cc2F)c[nH]c2nncc1-2', 'middle bracket'),
  ('O=C1Nc2ccc(CN3C(=O)CSC3=O)cc2/C1=C/c1cc(CN2CCOCC2)c[nH]1', 'middle bracket'),
  ('Cc1cc(CN2CCN(c3c(Br)cnc4nc(-c5ccc(N6CCN(C)CC6)cc5)[nH]c34)CC2)no1', 'middle bracket'),
  ('COc1cc(Nc2c(C#N)cnc3cc(OCCCN4CCN(C)CC4)c(OC)cc23)c(Cl)cc1Cl [Bosutinib (SKI-606)]', 'low bracket'),
  ('O=c1cc(-c2ccccc2)oc2c(O)c(O)ccc12 [7,8-Dihydroxyflavone]', 'middle bracket'),
  ('FC(F)(F)c1ccc(CNc2ccc(Cc3c[nH]c4ncc(Cl)cc34)cn2)cn1', 'high bracket'),
  ('CCCCCCCCCCCCCCCCn1cc[n+](Cc2ccccc2)c1C', 'low bracket'),
  ('CC(C)NC(=O)C1CCC(n2c(NC(=O)c3ccc(F)cc3)nc3ccc(CN4CCC(C(C)(C)O)CC4)cc32)CC1 (configuration not stated)', 'high bracket'),
  ('Cc1[nH]c(/C=C2\C(=O)Nc3ccccc32)c(C)c1CCC(=O)O [Orantinib (TSU-68, SU6668)]', 'middle bracket'),
  ('O=C1c2c(O)cc(O)cc2OC(c2ccc(O)c(O)c2)C1O (configuration not stated) [Taxifolin (Dihydroquercetin)]', 'middle bracket'),
  ('C[C@]1(O)C[C@@H](c2nc(-c3ccc4ccc(-c5ccccc5)nc4c3)c3c(N)nccn32)C1', 'low bracket');

---

Test system: LOC_OS05G43570-cb004
PROTOCOL_NOTES: thermal shift delta Tm vs DMSO control; higher = stronger stabilization (binding)
TEST_SETTINGS: 12.5 µM; protein concentration 2 µM
Is thermal shift delta Tm at least 0.2 °C? Then MET. If not, NOT MET.

INSERT INTO results (molecule, discrete_label) VALUES
  ('CCNC(=O)Nc1ccc(-c2nc(N3CCOC[C@@H]3C)c3c(n2)C(C)(C)S(=O)(=O)C3)cc1', 'MET'),
  ('CCCCCCCCCCCCc1ccc(S(=O)(=O)Nc2nncs2)cc1', 'MET'),
  ('COc1ccc(-c2ccc3ncc4c(c3c2)n(-c2ccc(N3CCNCC3)c(C(F)(F)F)c2)c(=O)n4C)cn1', 'MET'),
  ('C[C@@H]1CN(CC(=O)Nc2ccc3c(c2)Cc2cccc(-c4cc(=O)cc(N5CCOCC5)o4)c2S3)C[C@H](C)O1', 'MET'),
  ('N#Cc1cnc(Nc2cc(NC[C@H]3CNCCO3)c(C(F)(F)F)cn2)cn1', 'NOT MET'),
  ('O=C(NCCO)c1cccc(-c2cc(Nc3ccc(OC(F)(F)F)cc3)ncn2)c1', 'NOT MET'),
  ('CN1CC(O)C2=C/C(=N/NC(N)=O)C(=O)C=C21 (centres undefined) [Carbazochrome]', 'MET'),
  ('COc1ccc(F)c(F)c1C(=O)c1cnc(NC2CCN(S(C)(=O)=O)CC2)nc1N', 'NOT MET'),
  ('Nc1ccc(C(=O)Nc2cccc(-c3nc(N4CCOCC4)c4oc5ncccc5c4n3)c2)cn1', 'NOT MET');
